Source listed as ChEMBL document CHEMBL1142686.

Biological target: Glutamate NMDA receptor
Assay: Antagonist activity of compound against rat N-methyl-D-aspartate glutamate receptor using [3H]glycine
result.type: IC50
// unit must come after the numeric part

Per the record, O=C(O)/C(=C/c1c(C(=O)O)[nH]c2cc(Cl)cc(Cl)c12)c1ccccc1 has IC50 of 11 nM

----------
Biological target: Glutamate NMDA receptor
Assay: Antagonist activity of compound against rat N-methyl-D-aspartate glutamate receptor using 11 nM [3H]glycine
Type: functional
result.type: pIC50
Lab note: report pIC50 as minus log10 of the concentration in molar units, number only.

With Glutamate NMDA receptor as the test system, COC(=O)Nc1cccc(/C(=C\c2c(C(=O)O)[nH]c3cc(Cl)cc(Cl)c23)C(=O)O)c1 showed pIC50 of 6.94

Entry O=C(O)/C(=C/c1c(C(=O)O)[nH]c2cc(Cl)cc(Cl)c12)c1ccccn1 : pIC50 on Glutamate NMDA receptor = 5.99

# O=C(O)/C(=C/c1c(C(=O)O)[nH]c2cc(Cl)cc(Cl)c12)c1ccoc1 with Glutamate NMDA receptor: pIC50 is 7.68

Record O=C(O)/C(=C/c1c(C(=O)O)[nH]c2cc(Cl)cc(Cl)c12)c1ccc(Cl)cc1Cl has Glutamate NMDA receptor pIC50 equal to 6.94

I looked up Cc1ccc(/C(=C\c2c(C(=O)O)[nH]c3cc(Cl)cc(Cl)c23)C(=O)O)cc1 and its pIC50 for Glutamate NMDA receptor was 6.98

----------
System: Mus musculus
Assay: In vivo effective dose to protect the mouse (DBA/2J) from audiogenic seizures upon intraperitoneal administration
Format: functional
Settings: ip
Binary label based on ED50 with cut-off 10 mg/kg: below gives T, not below gives F.

Problem: For the compound COC(=O)Nc1cccc(/C(=C\c2c(C(=O)O)[nH]c3cc(Cl)cc(Cl)c23)C(=O)O)c1 , is ED50 under 10 mg/kg?
T

In plain terms, does Nc1cccc(/C(=C\c2c(C(=O)O)[nH]c3cc(Cl)cc(Cl)c23)C(=O)O)c1 come in under 10 mg/kg for ED50?
F

Hi there! Is ED50 for O=c1[nH]c2cc(Cl)c(Cl)c([N+](=O)[O-])c2[nH]c1=O below 10 mg/kg, do you know?
T

Quick check: does O=C(/C=C/c1c(C(=O)[O-])[nH]c2cc(Cl)cc(Cl)c12)Nc1ccccc1.[Na+] [GAVESTINEL SODIUM] have ED50 under 10 mg/kg?
F

Bench note: check whether O=C(O)/C(=C/c1c(C(=O)O)[nH]c2cc(Cl)cc(Cl)c12)c1ccccc1 shows ED50 below 10 mg/kg
F

Confirm or reject: ED50 of O=C(O)/C(=C/c1c(C(=O)O)[nH]c2cc(Cl)cc(Cl)c12)c1ccsc1 lies strictly below 10 mg/kg
F

Is ED50 of O=c1[nH]c2cc(Cl)ccc2c(O)c1-c1cccc(Oc2ccccc2)c1 strictly below 10 mg/kg?
T

----------
Biological target: Glutamate NMDA receptor
Test: In vitro inhibitory concentration against binding of the [3H]glycine to strychnine-insensitive glycine binding sites of rat N-methyl-D-aspartate glutamate receptor
Format: protein-complex assay
Kindly supply the reported IC50 values for the records listed here.

Per the record, Nc1cccc(/C(=C\c2c(C(=O)O)[nH]c3cc(Cl)cc(Cl)c23)C(=O)O)c1 has IC50 of 24.3 nM

COC(=O)Nc1cccc(/C(=C\c2c(C(=O)O)[nH]c3cc(Cl)cc(Cl)c23)C(=O)O)c1 yielded IC50 of 114 nM

Given item O=C(O)/C(=C/c1c(C(=O)O)[nH]c2cc(Cl)cc(Cl)c12)c1ccsc1 , the value recorded as its IC50 is 9.6 nM

Lab note: measured IC50 of O=c1[nH]c2cc(Cl)c(Cl)c([N+](=O)[O-])c2[nH]c1=O [LICOSTINEL] was 20 nM

Sample O=C(O)/C(=C/c1c(C(=O)O)[nH]c2cc(Cl)cc(Cl)c12)c1ccccc1 ; IC50 observed: 10.9 nM

Sample O=C(/C=C/c1c(C(=O)[O-])[nH]c2cc(Cl)cc(Cl)c12)Nc1ccccc1.[Na+] [GAVESTINEL SODIUM] ; IC50 observed: 15.2 nM

// sample O=c1[nH]c2cc(Cl)ccc2c(O)c1-c1cccc(Oc2ccccc2)c1 , its IC50 was 13.2 nM

----------
Assay: Half life was measured in rat following intravenous administration
Assay type: ADME, organism-based
Settings: in vivo
result.type: half-life

Notebook: Nc1cccc(/C(=C\c2c(C(=O)O)[nH]c3cc(Cl)cc(Cl)c23)C(=O)O)c1 , half-life read as > 1 h

----------
Molecular target: Glutamate NMDA receptor
Assay: Antagonist activity of compound against rat N-methyl-D-aspartate glutamate receptor using 11 nM [3H]glycine
Assay type: functional
result.type: IC50 (nM)
Give your result in nM as a bare value.

Measured IC50 of O=C(O)/C(=C/c1c(C(=O)O)[nH]c2cc(Cl)cc(Cl)c12)c1cccc(NC(=O)c2ccccc2)c1 : 512

Briefly, IC50 measured for O=C(O)/C(=C/c1c(C(=O)O)[nH]c2cc(Cl)cc(Cl)c12)c1ccc(Br)cc1 : 29

Lookup result for CN(C)c1cccc(/C(=C\c2c(C(=O)O)[nH]c3cc(Cl)cc(Cl)c23)C(=O)O)c1 ; measured IC50: 225

Briefly, IC50 measured for O=C(O)/C(=C/c1c(C(=O)O)[nH]c2cc(Cl)cc(Cl)c12)c1ccc(F)cc1 : 35.5

// IC50 lookup, compound = O=C(NCc1ccccc1)/C(=C/c1c(C(=O)O)[nH]c2cc(Cl)cc(Cl)c12)c1ccccc1 , result: 31

Recorded IC50 (compound O=C(Nc1ccccc1)/C(=C/c1c(C(=O)O)[nH]c2cc(Cl)cc(Cl)c12)c1ccccc1 ): 15

Sample COc1ccc(/C(=C\c2c(C(=O)O)[nH]c3cc(Cl)cc(Cl)c23)C(=O)O)cc1 ; IC50 observed: 136

Briefly, IC50 measured for CNC(=O)/C(=C/c1c(C(=O)O)[nH]c2cc(Cl)cc(Cl)c12)c1ccccc1 : 50

Summary for this compound, O=C(O)/C(=C/c1c(C(=O)O)[nH]c2cc(Cl)cc(Cl)c12)c1ccc([N+](=O)[O-])cc1 : IC50 is 21

Query CN(C)C(=O)/C(=C/c1c(C(=O)O)[nH]c2cc(Cl)cc(Cl)c12)c1ccccc1 yields IC50 of 68

// recorded IC50 for N#C/C(=C/c1c(C(=O)O)[nH]c2cc(Cl)cc(Cl)c12)c1ccc(N)cc1 : 4660

Sure, the documented IC50 for O=C(O)/C(=C/c1c(C(=O)O)[nH]c2cc(Cl)cc(Cl)c12)c1ccsc1 is 14

Reported IC50 for O=C(O)/C(=C/c1c(C(=O)O)[nH]c2cc(Cl)cc(Cl)c12)c1cccc2ccccc12 was 145

IC50 measured on CS(=O)(=O)Nc1ccc(/C(=C\c2c(C(=O)O)[nH]c3cc(Cl)cc(Cl)c23)C(=O)O)cc1 = 167

# compound O=C(NCCc1ccccc1)/C(=C/c1c(C(=O)O)[nH]c2cc(Cl)cc(Cl)c12)c1ccccc1 ; its IC50 = 224

Value of measured IC50 for the entry O=C(O)/C(=C\c1c(C(=O)O)[nH]c2cc(Cl)cc(Cl)c12)c1ccccc1 : 157

The compound identified as O=C(O)c1[nH]c2cc(Cl)cc(Cl)c2c1/C=C/C(=O)N1CCCCC1 registered its IC50 at 38

# compound COc1cccc(/C(=C\c2c(C(=O)O)[nH]c3cc(Cl)cc(Cl)c23)C(=O)O)c1 ; its IC50 = 117

----------
Molecular target: Glutamate NMDA receptor
Assay: Binding affinity against strychnine-insensitive glycine sites of rat N-methyl-D-aspartate glutamate receptor using [3H]glycine
result.type: pKi
API: returns pKi as number; meaning -log10 of concentration in mol/L.

// sample Nc1cccc(/C(=C/c2c(C(=O)O)[nH]c3cc(Cl)cc(Cl)c23)C(=O)O)c1 , its pKi was 6.26

----------
Molecular target: Glutamate NMDA receptor
Assay: Antagonist activity of compound against rat N-methyl-D-aspartate glutamate receptor using 11 nM [3H]glycine
Format: functional
result.type: pIC50
Note on pIC50: it is the negative log10 of concentration, concentration in mol/L.

response.value for O=C(O)/C(=C/c1c(C(=O)O)[nH]c2cc(Cl)cc(Cl)c12)c1cccs1 (field: pIC50) = 8.05

O=C(O)/C(=C/c1c(C(=O)O)[nH]c2cc(Cl)cc(Cl)c12)c1ccco1 has a reported pIC50 of 7.66

For this compound ( O=C(O)/C(=C/c1c(C(=O)O)[nH]c2cc(Cl)cc(Cl)c12)c1ccccc1Cl ), measured pIC50 is 6.67

Sure, the documented pIC50 for O=C(/C=C/c1c(C(=O)O)[nH]c2cc(Cl)cc(Cl)c12)Nc1ccccc1 [GAVESTINEL] is 7.82

Notebook: O=C(O)/C(=C/c1c(C(=O)O)[nH]c2cc(Cl)cc(Cl)c12)c1cccnc1 , pIC50 read as 6.90

Short answer for O=C(O)/C(=C/c1c(C(=O)O)[nH]c2cc(Cl)cc(Cl)c12)c1ccc(Cl)cc1 : pIC50 was 7.19

Entry under test: NC(=O)/C(=C/c1c(C(=O)O)[nH]c2cc(Cl)cc(Cl)c12)c1ccccc1 . Its pIC50 was 7.70

Note to self: pIC50 recorded for O=C(O)/C(=C/c1c(C(=O)O)[nH]c2cc(Cl)cc(Cl)c12)c1ccncc1 was 6.82

In plain terms, O=C(O)/C(=C/c1c(C(=O)O)[nH]c2cc(Cl)cc(Cl)c12)c1ccc(C(F)(F)F)cc1 has a documented pIC50 of 7.05
